Molecular target: AaOR10/Orco (Ae. aegypti OR10 with A. bakeri Orco) (Aedes aegypti)
Construct: gene GPRor10; co-expressed in HEK293 cells; with Odorant receptor coreceptor (Apocrypta bakeri)
Sequence (Q177X3 1-375): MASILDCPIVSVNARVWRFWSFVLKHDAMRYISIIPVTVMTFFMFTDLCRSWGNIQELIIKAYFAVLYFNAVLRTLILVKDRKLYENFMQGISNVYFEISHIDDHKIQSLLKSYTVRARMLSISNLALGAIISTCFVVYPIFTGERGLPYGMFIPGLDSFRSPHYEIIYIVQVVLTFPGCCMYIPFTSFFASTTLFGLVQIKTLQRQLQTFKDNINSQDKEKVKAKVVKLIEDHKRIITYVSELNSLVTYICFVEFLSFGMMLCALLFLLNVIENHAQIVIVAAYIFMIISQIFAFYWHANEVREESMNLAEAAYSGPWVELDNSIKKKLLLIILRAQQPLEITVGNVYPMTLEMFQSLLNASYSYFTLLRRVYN
Sequence (B0FAQ4 1-474 partner): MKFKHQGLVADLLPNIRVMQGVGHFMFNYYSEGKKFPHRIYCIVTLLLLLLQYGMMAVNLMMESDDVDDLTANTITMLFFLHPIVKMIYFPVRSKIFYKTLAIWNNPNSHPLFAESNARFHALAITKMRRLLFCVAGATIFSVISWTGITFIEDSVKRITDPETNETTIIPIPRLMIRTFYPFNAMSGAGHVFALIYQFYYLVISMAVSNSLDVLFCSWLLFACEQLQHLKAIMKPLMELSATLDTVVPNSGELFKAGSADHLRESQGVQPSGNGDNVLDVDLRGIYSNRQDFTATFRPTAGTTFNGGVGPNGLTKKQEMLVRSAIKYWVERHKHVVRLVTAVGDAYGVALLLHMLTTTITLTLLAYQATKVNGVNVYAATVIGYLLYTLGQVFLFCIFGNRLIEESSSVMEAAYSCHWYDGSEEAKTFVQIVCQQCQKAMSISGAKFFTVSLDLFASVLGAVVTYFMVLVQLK
Test: whole-cell voltage clamp, HEK293T cells
Format: cell-based
Conditions: agonist; far from saturation at high concentration, limiting goodness of fit
measuredParameter: EC50 (µM)
Write the answer as a number in µM, unit excluded.

stdin: Give a short answer stating reported EC50 for `Cc1ccccc1O` .
stdout: 13.3
